- Test system: human T lymphoma cell line HUT 78
- Method description: In vitro cytotoxicity assay (MTS), HUT 78
- Format: cell-based
- Condition notes: HuT78, 48 h, DXR equivalent concentration, about two days incubation, read-out: IC50 against HUT 78

{"Smiles entry": "COc1cccc2c1C(=O)c1c(O)c3c(c(O)c1C2=O)C[C@@](O)(C(=O)CO)C[C@@H]3O[C@H]1C[C@H](N)[C@H](O)[C@H](C)O1", "IC50": "2100 nM"}
